experiment: physchem; details: water
measurement_kind: solubility thermodynamic (mM)
Numbers only, in mM.

Indicate its recorded solubility thermodynamic; the compound in question is OC[C@H]1O[C@@H]2O[C@H]3[C@H](O)[C@@H](O)[C@@H](O[C@H]4[C@H](O)[C@@H](O)[C@@H](O[C@H]5[C@H](O)[C@@H](O)[C@@H](O[C@H]6[C@H](O)[C@@H](O)[C@@H](O[C@H]7[C@H](O)[C@@H](O)[C@@H](O[C@H]8[C@H](O)[C@@H](O)[C@@H](O[C@H]1[C@H](O)[C@H]2O)O[C@@H]8CO)O[C@@H]7CO)O[C@@H]6CO)O[C@@H]5CO)O[C@@H]4CO)O[C@@H]3CO [β-cyclodextrin] 115
